System: ACHN
PROTOCOL SUMMARY: minimum viability across doses, drug alone, relative to DMSO (fraction); higher = less growth inhibition
CONDITION PARAMETERS: treatment: drug alone; 5 days
Form field: minimum viability across doses (one value per entry).
# output: bare number, no unit

Example entries and their recorded answers appear below.
COMPOUND	minimum viability across doses
COc1cc2ncnc(Nc3ccc(F)c(Cl)c3)c2cc1OCCCN1CCOCC1	0.179
O=C(NC[C@H](O)CO)c1ccncc1Nc1ccc(I)cc1F	0.273
O=C1NC(=O)/C(=C/c2ccc3c(c2)OC(F)(F)O3)S1	0.93
COc1ccc(S(=O)(=O)N(C(C)=O)c2ccccc2/C=C/c2cc[n+]([O-])cc2)cc1	0.127
Cc1cc(C(C)Nc2ccccc2)c2nc(N3CCOCC3)cc(=O)n2c1 (configuration not stated)	0.736
Cc1cc(Nc2cc(N3CCN(C)CC3)nc(Sc3ccc(NC(=O)C4CC4)cc3)n2)n[nH]1	0.214
CO[C@H]1C[C@@H]2CC[C@@H](C)[C@@](O)(O2)C(=O)C(=O)N2CCCC[C@H]2C(=O)O[C@H]([C@H](C)C[C@@H]2CC[C@@H](O)[C@H](OC)C2)CC(=O)[C@H](C)/C=C(\C)[C@@H](O)[C@@H](OC)C(=O)[C@H](C)C[C@H](C)/C=C/C=C/C=C/1C [Rapamycin (Sirolimus)]	0.38
CC(=O)NCC(=O)N1[C@H]2CC[C@H]1c1cc(Nc3ncc(C(F)(F)F)c(NC4CCC4)n3)ccc12	0.0112

Form field: reported minimum viability across doses of CNC(=O)c1ccccc1Nc1nc(Nc2ccc(N3CCOCC3)cc2OC)ncc1Cl 0.102

Form field: reported minimum viability across doses of CC[C@@H]1C(=O)N(C)c2cnc(Nc3ccc(C(=O)N[C@H]4CC[C@H](N5CCN(CC6CC6)CC5)CC4)cc3OC)nc2N1C(C)C 0.0122

Form field: reported minimum viability across doses of C[C@@H]1CN(CC(=O)Nc2ccc3c(c2)Cc2cccc(-c4cc(=O)cc(N5CCOCC5)o4)c2S3)C[C@H](C)O1 0.548
